target: Grb2 SH2 (UniProt P62993); assay: SH2 binding enrichment of the phosphorylated peptide, bacterial display (enrichment ratio); higher = better substrate or ligand; peptides without Tyr show the background
Sequence (P62993 whole entry, looked up): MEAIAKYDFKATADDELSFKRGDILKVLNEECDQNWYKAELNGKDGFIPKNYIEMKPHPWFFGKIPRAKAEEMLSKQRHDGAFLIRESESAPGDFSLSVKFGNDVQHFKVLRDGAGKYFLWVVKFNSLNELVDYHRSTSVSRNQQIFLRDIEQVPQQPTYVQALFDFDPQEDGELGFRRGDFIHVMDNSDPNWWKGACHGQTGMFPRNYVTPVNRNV
Class true: SH2 binding enrichment at least 0.9. Class false: SH2 binding enrichment below 0.9.

Answered examples (5):
In [3]: df
Out[3]:
                   polymer_sequence                     target  discrete_label
0  QRCFVYFFSFL [PTEN_Y176_R173C_YF]  Grb2 SH2 (UniProt P62993)            true
1          IGRGSYAKVLL [PRKCZ_Y263]  Grb2 SH2 (UniProt P62993)            true
2   AIYWRYSKFFD [SH3PXD2B_Y45_R43W]  Grb2 SH2 (UniProt P62993)           false
3     EWQQIYTFDSG [JUP_Y20_T19I_YF]  Grb2 SH2 (UniProt P62993)            true
4         RLSELYLRRNR [CFAP410_Y68]  Grb2 SH2 (UniProt P62993)           false

Tell me whether SH2 binding enrichment is at least 0.9 here: LQTYHYHGHSM [PDHA1_Y289_R288H]
true

Tell me whether SH2 binding enrichment is at least 0.9 here: NFRTTCVNANE [KCNH2_Y475_Y475C]
false

Tell me whether SH2 binding enrichment is at least 0.9 here: PLDGEYLTLQI [TP53_Y327_F328L]
false

Tell me whether SH2 binding enrichment is at least 0.9 here: MDDDQYALLTA [EFCAB6_Y675_T680A]
false

Tell me whether SH2 binding enrichment is at least 0.9 here: TSYSGYRCHRH [NKAPL_Y94_Y96C]
true

Tell me whether SH2 binding enrichment is at least 0.9 here: CTTIHYNFMCH [TP53_Y234_N239H_YF]
true

Tell me whether SH2 binding enrichment is at least 0.9 here: IRTIDYRFTVC [IDS_Y497_W502C_YF]
false

Tell me whether SH2 binding enrichment is at least 0.9 here: ELCSEYHKSRK [SPINK5_Y440_R441H]
false

Tell me whether SH2 binding enrichment is at least 0.9 here: TNLVPYTRIHF [TUBA1A_Y262_P263T]
true

Tell me whether SH2 binding enrichment is at least 0.9 here: QYKGKYLAKHN [CASK_Y712_D710G]
true

###

Quick list: phosphorylation enrichment per entry.
target: Hck (UniProt P08631); assay: phosphorylation enrichment, bacterial display (enrichment ratio); higher = better substrate or ligand; peptides without Tyr show the background
Sequence (P08631 whole entry, looked up): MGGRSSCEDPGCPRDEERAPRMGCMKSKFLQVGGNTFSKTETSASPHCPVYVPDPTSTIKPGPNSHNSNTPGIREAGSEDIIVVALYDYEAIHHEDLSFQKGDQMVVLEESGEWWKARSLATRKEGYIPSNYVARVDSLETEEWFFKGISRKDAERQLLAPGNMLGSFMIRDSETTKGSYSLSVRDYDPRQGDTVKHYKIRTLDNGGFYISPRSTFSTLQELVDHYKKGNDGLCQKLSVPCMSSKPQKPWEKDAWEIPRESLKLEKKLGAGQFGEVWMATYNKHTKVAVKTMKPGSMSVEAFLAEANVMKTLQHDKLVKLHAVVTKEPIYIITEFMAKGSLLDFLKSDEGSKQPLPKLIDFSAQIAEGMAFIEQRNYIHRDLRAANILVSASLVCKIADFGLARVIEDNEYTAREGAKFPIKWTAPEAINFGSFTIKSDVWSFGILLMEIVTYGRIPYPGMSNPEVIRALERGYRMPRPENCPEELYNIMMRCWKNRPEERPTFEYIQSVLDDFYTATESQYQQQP

>>> df
                polymer_sequence               quantity_name  test_result
0  TEIGQYGNGLK [MORC2_Y100_Q96E]  phosphorylation enrichment        0.448

So, TKAEKYVNKPK [PLCG1_Y991_A995P] ? Its phosphorylation enrichment was 0.559

So, TAPFNYSFIFK [RAB14_Y8_YF] ? Its phosphorylation enrichment was 0.56

So, GDPVQYNRTTD [MLPH_Y454] ? Its phosphorylation enrichment was 0.381

###

target: EPHB2 (UniProt P29323); assay: phosphorylation enrichment, bacterial display (enrichment ratio); higher = better substrate or ligand; peptides without Tyr show the background
Sequence (P29323 whole entry, looked up): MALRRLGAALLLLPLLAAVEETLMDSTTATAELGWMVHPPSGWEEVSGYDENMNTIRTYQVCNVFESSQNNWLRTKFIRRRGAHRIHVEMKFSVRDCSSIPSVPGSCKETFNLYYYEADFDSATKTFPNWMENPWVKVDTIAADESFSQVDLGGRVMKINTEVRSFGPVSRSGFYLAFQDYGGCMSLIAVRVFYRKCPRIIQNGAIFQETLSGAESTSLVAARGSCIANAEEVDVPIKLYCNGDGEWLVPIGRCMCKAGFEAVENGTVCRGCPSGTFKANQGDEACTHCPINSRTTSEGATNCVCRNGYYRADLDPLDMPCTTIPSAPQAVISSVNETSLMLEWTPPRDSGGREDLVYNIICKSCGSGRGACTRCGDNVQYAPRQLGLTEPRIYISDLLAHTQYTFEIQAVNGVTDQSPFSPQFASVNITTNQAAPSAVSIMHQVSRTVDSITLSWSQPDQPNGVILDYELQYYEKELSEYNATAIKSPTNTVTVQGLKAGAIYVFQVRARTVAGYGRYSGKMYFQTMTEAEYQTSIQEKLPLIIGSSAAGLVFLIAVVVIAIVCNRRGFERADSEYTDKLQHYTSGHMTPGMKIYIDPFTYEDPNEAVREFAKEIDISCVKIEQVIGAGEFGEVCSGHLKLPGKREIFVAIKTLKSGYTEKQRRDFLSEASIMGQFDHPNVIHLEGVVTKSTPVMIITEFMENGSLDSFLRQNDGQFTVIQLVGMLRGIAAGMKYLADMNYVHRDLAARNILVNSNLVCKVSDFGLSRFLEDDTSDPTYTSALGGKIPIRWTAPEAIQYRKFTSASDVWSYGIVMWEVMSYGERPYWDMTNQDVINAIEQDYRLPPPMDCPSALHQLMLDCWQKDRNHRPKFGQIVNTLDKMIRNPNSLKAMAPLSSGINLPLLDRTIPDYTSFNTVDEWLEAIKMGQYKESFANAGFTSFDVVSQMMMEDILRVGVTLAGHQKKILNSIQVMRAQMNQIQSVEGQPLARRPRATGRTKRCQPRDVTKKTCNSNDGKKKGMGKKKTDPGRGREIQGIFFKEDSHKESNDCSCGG
Recorded phosphorylation enrichment split into classes bin 0: < 0.6; bin 1: ≥ 0.6 and < 0.8; bin 2: ≥ 0.8

>>> print(df.to_string())
                   polymer_sequence  discrete_label
0           NKPTVYGVSPN [ABL1_Y226]           bin 0
1     QRIHNYYEHRY [HCN4_Y554_D553N]           bin 2
2    LLANAYIYDVQ [L1CAM_Y418_V421D]           bin 2
3     DPLLTYWFPPK [LMNA_Y481_R482W]           bin 2
4  FSGDCYRIQGR [DDR2_Y741_Y740C_YF]           bin 1

For the record QSKGIYFVQLE [MGAT4B_Y262_YF] , report the class its phosphorylation enrichment corresponds to.
bin 2

For the record GHLFANDWISI [BEST1_Y227_Y227N_YF] , report the class its phosphorylation enrichment corresponds to.
bin 1

For the record IDLEKYKLLPE [DHFR_Y157] , report the class its phosphorylation enrichment corresponds to.
bin 1

For the record EWKNNCPRLRE [OPA1_Y582_Y582C] , report the class its phosphorylation enrichment corresponds to.
bin 0

For the record SEASYYKSLNL [NGEF_Y289] , report the class its phosphorylation enrichment corresponds to.
bin 0

For the record DLAAQYTTVGH [SGSH_Y240_R245H] , report the class its phosphorylation enrichment corresponds to.
bin 0

###

Quick list: phosphorylation enrichment per entry.
molecular target: FGFR3 (UniProt P22607); experiment: phosphorylation enrichment, bacterial display (enrichment ratio); higher = better substrate or ligand; peptides without Tyr show the background
Sequence (P22607 whole entry, looked up): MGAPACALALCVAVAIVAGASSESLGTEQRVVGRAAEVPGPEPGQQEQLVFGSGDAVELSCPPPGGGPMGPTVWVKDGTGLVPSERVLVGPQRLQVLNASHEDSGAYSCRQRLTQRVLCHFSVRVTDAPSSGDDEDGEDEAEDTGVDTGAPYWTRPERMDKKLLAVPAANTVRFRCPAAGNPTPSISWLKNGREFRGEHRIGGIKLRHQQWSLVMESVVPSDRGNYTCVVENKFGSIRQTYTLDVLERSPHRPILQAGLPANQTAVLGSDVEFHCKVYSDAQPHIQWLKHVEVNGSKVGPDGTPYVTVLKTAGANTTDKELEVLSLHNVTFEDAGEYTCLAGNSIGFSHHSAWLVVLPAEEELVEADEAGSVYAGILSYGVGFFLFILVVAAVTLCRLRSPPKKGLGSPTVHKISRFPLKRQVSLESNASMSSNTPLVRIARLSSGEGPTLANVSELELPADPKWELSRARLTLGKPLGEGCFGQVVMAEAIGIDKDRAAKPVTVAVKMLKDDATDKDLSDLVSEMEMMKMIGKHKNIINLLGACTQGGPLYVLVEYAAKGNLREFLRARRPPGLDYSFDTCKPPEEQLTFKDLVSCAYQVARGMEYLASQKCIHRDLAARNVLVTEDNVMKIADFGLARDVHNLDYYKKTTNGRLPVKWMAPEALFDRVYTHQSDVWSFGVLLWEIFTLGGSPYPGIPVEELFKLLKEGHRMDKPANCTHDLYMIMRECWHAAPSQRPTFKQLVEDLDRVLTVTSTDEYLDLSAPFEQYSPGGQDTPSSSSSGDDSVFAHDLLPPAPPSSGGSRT
When you answer, write just the number.

// worked examples, phosphorylation enrichment included
                    polymer_sequence                  target  test_result
0      AEYGLYAAMVR [VSX2_Y222_G223A]  FGFR3 (UniProt P22607)        0.895
1      GLDGRYLLRDS [SH2D1A_Y29_S28R]  FGFR3 (UniProt P22607)        0.488
2  RRAKGYPIFLF [ITGB2_Y125_D128Y_YF]  FGFR3 (UniProt P22607)         0.63
3           AEKPKYQINNI [TJP1_Y1602]  FGFR3 (UniProt P22607)        0.427
4             DYLEKYYKFGS [NNMT_Y24]  FGFR3 (UniProt P22607)        0.553
5    TFRPPYFHRDC [HGD_Y333_N337D_YF]  FGFR3 (UniProt P22607)            2
6       IDPFIYTPFGS [CYP3A4_Y432_YF]  FGFR3 (UniProt P22607)        0.779
7            LFLALYTGLVH [PIGB_Y402]  FGFR3 (UniProt P22607)         1.39

Response field phosphorylation enrichment (FGFR3 (UniProt P22607)) for item EGVPLYESATT [DCC_Y809] : 0.775

Response field phosphorylation enrichment (FGFR3 (UniProt P22607)) for item PSELFYSKISP [SMG1_Y2254_G2258S_YF] : 2.72

Response field phosphorylation enrichment (FGFR3 (UniProt P22607)) for item ASENVYVNIAH [CTSC_Y150] : 2.05

Response field phosphorylation enrichment (FGFR3 (UniProt P22607)) for item EKFVPYYDLFM [IPO5_Y530] : 5.89

Response field phosphorylation enrichment (FGFR3 (UniProt P22607)) for item AKKKMYSCKTK [AGXT_Y231_R233C] : 1.64

Response field phosphorylation enrichment (FGFR3 (UniProt P22607)) for item KKFPDYIQIAM [SGMS2_Y59_YF] : 5.17

###

Quick list: phosphorylation enrichment per entry.
target: Hck (UniProt P08631); experiment: phosphorylation enrichment, bacterial display (enrichment ratio); higher = better substrate or ligand; peptides without Tyr show the background
When you answer, write just the number.

// worked examples, phosphorylation enrichment included
>>> df
                      polymer_sequence  test_result
0        RNVYYYSYLLK [PTEN_Y178_Y174N]         5.15
1  EAEPFYCSLRD [NPHS1_Y1139_R1140C_YF]         2.54
2            CRIELYRVVES [IGFBP1_Y181]        0.574
3         FDFKKYGKGLR [ZNF445_Y433_YF]         0.45
4             CQAHGYFCQLI [STK11_Y156]        0.436

So, CLSHCYFSQIR [MCM3AP_Y873_L870S] ? Its phosphorylation enrichment was 0.363

So, CRWKRYQCSHD [GDPD5_Y30_R32C] ? Its phosphorylation enrichment was 0.529

So, IIWDSYTTNKV [GNB1_Y85] ? Its phosphorylation enrichment was 0.482

So, SHNKFYMLVAH [MFSD8_Y134_R139H_YF] ? Its phosphorylation enrichment was 0.695

So, KGEDFYCVTYH [FHL1_Y149_C153Y] ? Its phosphorylation enrichment was 1.71

So, GYQPEYGQPAG [SYP_Y278_D277E] ? Its phosphorylation enrichment was 0.419

So, RVDRDYVLKST [HTATIP2_Y111_A116T] ? Its phosphorylation enrichment was 0.578

So, GKVFIYHGSSL [ITGA7_Y458] ? Its phosphorylation enrichment was 0.571

So, IKKLIYVFLVI [JAGN1_Y42_H44Y_YF] ? Its phosphorylation enrichment was 0.393

Where do these numbers come from? They come from the supplement of paper PMC10065799.
